System: Mus musculus
Experiment: Ex vivo inhibition of 11beta-HSD1 in male C57BL/6 mouse epididymal fat assessed as conversion of cortisone to cortisol at 30 mg/kg, po after 6 hrs by enzyme immunoassay
Assay type: functional
Conditions: C57BL/6, 6 h
Below, each of the compounds is paired with its reported inhibition in vivo at 30 mg/kg value.

Some solved entries appear below for comparison.
- C[C@@H]1CN(c2ccc(C(C)(C)O)cc2)CCN1c1cccc(C(=O)N[C@H]2C3CC4CC2C[C@](O)(C4)C3)n1: 77%
- N#Cc1ccc(N2CCN(c3cccc(C(=O)N[C@H]4C5CC6CC4C[C@](O)(C6)C5)n3)CC2)cc1: < 10%

Data request: Query: inhibition in vivo at 30 mg/kg; subject: C[C@@H]1CN(c2ccc(S(C)(=O)=O)cc2)CCN1c1cccc(C(=O)N[C@H]2C3CC4CC2C[C@](O)(C4)C3)n1
Data returned: 86%

Data request: Can you check CS(=O)(=O)c1ccc(N2CCN(c3cccc(C(=O)N[C@H]4C5CC6CC4C[C@](O)(C6)C5)n3)CC2)cc1 next?
Data returned: 22%

* * *

Test: Metabolic stability in mouse liver microsomes assessed as compound remaining after 30 mins
Format: ADME
Conditions: read-out: Stability
The following ranges of remaining at 0.5 h define the classes used here: range 1 (below 70%), range 2 (70% to below 80%), range 3 (80% or more)

* C[C@H]1CN(c2ccc(S(C)(=O)=O)cc2)CCN1c1cccc(C(=O)N[C@H]2C3CC4CC2C[C@](O)(C4)C3)n1 | range 3
* CS(=O)(=O)c1ccc(N2CCN(c3cccc(C(=O)N[C@H]4C5CC6CC4C[C@](O)(C6)C5)n3)CC2)cc1 | range 3
* NC(=O)c1ccc(N2CCN(c3cccc(C(=O)N[C@H]4C5CC6CC4C[C@](O)(C6)C5)n3)CC2)c(Cl)c1 | range 1
* NC(=O)c1ccc(N2CCN(c3cccc(C(=O)N[C@H]4C5CC6CC4C[C@](O)(C6)C5)n3)CC2)cc1F | range 1
* O=C(N[C@H]1C2CC3CC1C[C@](O)(C3)C2)c1cccc(N2CCN(c3ccc([N+](=O)[O-])cc3)CC2)n1 | range 2

Data request: Dear colleague, I would appreciate it if you could identify the bin for Nc1ccc(N2CCN(c3cccc(C(=O)N[C@H]4C5CC6CC4C[C@](O)(C6)C5)n3)CC2)cc1 and reply at your convenience.
Data returned: range 3

Data request: Can you check N#Cc1ccc(N2CCC(c3cccc(C(=O)N[C@H]4C5CC6CC4C[C@](O)(C6)C5)n3)CC2)cc1 next?
Data returned: range 1

Data request: Can you check COc1ccc(N2CCN(c3cccc(C(=O)N[C@H]4C5CC6CC4C[C@](O)(C6)C5)n3)CC2)cc1 next?
Data returned: range 3

Data request: Can you check COc1ccc(N2CCN(c3cccc(C(=O)N[C@H]4C5CC6CC4C[C@](O)(C6)C5)n3)[C@@H](C)C2)cc1 next?
Data returned: range 2

Data request: Can you check N#Cc1ccc(N2CCC(c3cccc(C(=O)N[C@H]4C5CC6CC4C[C@](O)(C6)C5)n3)CC2)nc1 next?
Data returned: range 1

Data request: Can you check N#Cc1ccc(N2CCN(c3cccc(C(=O)N[C@H]4C5CC6CC4C[C@](O)(C6)C5)n3)CC2)c(Cl)c1 next?
Data returned: range 3

Data request: Can you check N#Cc1ccc(C2CCN(c3cccc(C(=O)N[C@H]4C5CC6CC4C[C@](O)(C6)C5)n3)CC2)nc1 next?
Data returned: range 1
